Measured Target: Met receptor (EGFR/Met chimeric cells, EMR) (Homo sapiens, UniProt P08581)
Construct: expressed in transfected cells; the other entry of the earlier key: EGFR (P00533, Epidermal growth factor receptor)
Sequence (P08581 with tags, fused parts or gaps): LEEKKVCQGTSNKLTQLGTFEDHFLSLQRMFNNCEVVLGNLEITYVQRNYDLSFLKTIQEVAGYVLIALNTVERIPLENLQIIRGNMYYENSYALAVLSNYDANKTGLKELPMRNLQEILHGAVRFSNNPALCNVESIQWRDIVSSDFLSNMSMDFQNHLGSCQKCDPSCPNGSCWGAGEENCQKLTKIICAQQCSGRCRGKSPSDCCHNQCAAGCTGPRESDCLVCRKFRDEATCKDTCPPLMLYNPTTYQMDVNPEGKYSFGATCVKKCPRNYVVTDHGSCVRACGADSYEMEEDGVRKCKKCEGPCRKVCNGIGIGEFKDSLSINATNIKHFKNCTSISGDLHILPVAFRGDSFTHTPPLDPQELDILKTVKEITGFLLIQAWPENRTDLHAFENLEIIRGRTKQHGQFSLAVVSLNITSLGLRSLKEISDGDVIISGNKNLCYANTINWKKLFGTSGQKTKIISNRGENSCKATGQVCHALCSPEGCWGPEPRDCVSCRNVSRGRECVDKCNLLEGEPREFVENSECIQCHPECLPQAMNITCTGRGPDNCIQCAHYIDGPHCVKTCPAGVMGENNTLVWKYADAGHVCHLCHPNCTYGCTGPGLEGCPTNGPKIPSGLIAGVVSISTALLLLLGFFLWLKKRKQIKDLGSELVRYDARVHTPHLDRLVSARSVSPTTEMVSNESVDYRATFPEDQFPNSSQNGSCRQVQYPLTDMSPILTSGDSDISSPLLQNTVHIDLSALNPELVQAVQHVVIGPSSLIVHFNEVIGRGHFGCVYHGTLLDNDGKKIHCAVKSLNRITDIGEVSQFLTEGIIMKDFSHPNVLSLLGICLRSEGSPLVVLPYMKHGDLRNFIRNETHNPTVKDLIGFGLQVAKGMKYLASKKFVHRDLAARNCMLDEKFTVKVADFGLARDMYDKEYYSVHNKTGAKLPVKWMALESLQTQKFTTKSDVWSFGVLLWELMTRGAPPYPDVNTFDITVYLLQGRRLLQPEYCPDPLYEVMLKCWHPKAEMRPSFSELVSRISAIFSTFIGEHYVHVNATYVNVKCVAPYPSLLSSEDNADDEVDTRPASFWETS
Method Summary: Met Autophosphorylation Assay; also: test concentration or dose not given here
Format: biochemical
Reported Endpoint: Met Kinase % Inhibition (P.130) (%)
Numbers only; they are read as %.

Identify the measured Met Kinase % Inhibition (P.130) of O=C1Nc2ccc(CCCl)cc2C1=Cc1ccc(Cl)cc1 [10736/G02] for Met receptor (EGFR/Met chimeric cells, EMR) (Homo sapiens, UniProt P08581).
48.3

---

Measured Target: Met receptor (EGFR/Met chimeric cells, EMR) (Homo sapiens)
Construct: expressed in transfected cells; the other entry of the earlier key: EGFR (P00533, Epidermal growth factor receptor)
Method Summary: Met Autophosphorylation Assay; also: test concentration or dose not given here
Assay type: biochemical
Test Conditions: protocol P.130
Reported Endpoint: Met Kinase % Inhibition (P.130)
Mention the unit after the number when you answer.

Some molecules with recorded Met Kinase % Inhibition (P.130):
Smiles Structure | Measured Target | Met Kinase % Inhibition (P.130)
O=C1Nc2ccc(S(=O)(=O)N3CCOCC3)cc2C1=Cc1cccc(O)c1O | Met receptor (EGFR/Met chimeric cells, EMR) (Homo sapiens) | 86.7%
CNS(=O)(=O)c1ccc2c(c1)C(=Cc1cccc(Oc3ccc(Cl)c(Cl)c3)c1)C(=O)N2 | Met receptor (EGFR/Met chimeric cells, EMR) (Homo sapiens) | 16.0%
O=C1Nc2ccc(S(=O)(=O)Nc3ccc(C(F)(F)F)cc3)cc2C1=Cc1ccc2ccccc2n1 | Met receptor (EGFR/Met chimeric cells, EMR) (Homo sapiens) | 16.6%

Request: Met Kinase % Inhibition (P.130), test system Met receptor (EGFR/Met chimeric cells, EMR) (Homo sapiens), entry `Cc1c(Br)cc(Br)c2c1C(=Cc1ccccc1Cl)C(=O)N2`
41.5%

Recall the recorded Met Kinase % Inhibition (P.130) for `COc1ccccc1C=C1C(=O)Nc2ccc(S(=O)(=O)N3CCOCC3)cc21` with Met receptor (EGFR/Met chimeric cells, EMR) (Homo sapiens) and state it.
28.9%

# value lookup — system Met receptor (EGFR/Met chimeric cells, EMR) (Homo sapiens), readout Met Kinase % Inhibition (P.130), item `COc1ccc(Oc2cccc(C=C3C(=O)Nc4ccc(Br)c(C)c43)c2)cc1`
9.1%

What reported Met Kinase % Inhibition (P.130) corresponds to `CNS(=O)(=O)c1ccc2c(c1)C(=Cc1cccc(Oc3ccc(OC)cc3)c1)C(=O)N2` on Met receptor (EGFR/Met chimeric cells, EMR) (Homo sapiens)?
5.2%

Quick check: Met Kinase % Inhibition (P.130) on Met receptor (EGFR/Met chimeric cells, EMR) (Homo sapiens), item `O=C1Nc2ccc(I)cc2C1=Cc1ccnc2ccccc12` ?
84.8%

Given the entry `CNS(=O)(=O)c1ccc2c(c1)C(=Cc1cccc(O)c1O)C(=O)N2` , what Met Kinase % Inhibition (P.130) was observed with Met receptor (EGFR/Met chimeric cells, EMR) (Homo sapiens)?
96.0%

What reported Met Kinase % Inhibition (P.130) corresponds to `O=C1Nc2ccc(I)cc2C1=Cc1ccc(Oc2ccccc2)cc1` on Met receptor (EGFR/Met chimeric cells, EMR) (Homo sapiens)?
77.0%
